Molecular target: hGLP-1R (Homo sapiens, UniProt P43220)
Sequence (P43220 24-463): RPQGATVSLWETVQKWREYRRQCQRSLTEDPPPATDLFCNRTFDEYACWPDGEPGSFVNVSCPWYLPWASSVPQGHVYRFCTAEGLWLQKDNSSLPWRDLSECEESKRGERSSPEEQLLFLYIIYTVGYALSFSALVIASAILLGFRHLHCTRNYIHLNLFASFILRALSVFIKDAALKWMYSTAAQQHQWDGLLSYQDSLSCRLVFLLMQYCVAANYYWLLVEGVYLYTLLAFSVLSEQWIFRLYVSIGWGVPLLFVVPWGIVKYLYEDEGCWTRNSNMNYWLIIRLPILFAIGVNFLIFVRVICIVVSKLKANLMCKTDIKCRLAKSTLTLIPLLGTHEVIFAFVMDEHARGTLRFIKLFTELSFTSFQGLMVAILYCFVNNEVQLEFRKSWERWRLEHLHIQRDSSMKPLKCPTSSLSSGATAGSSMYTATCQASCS
Assay: cell-based or functional assay
Labelling field: enter T if recorded Relative cAMP EC50 is less than 2 nM. Enter F if it equals or exceeds that cut-off.

binder	answer.label
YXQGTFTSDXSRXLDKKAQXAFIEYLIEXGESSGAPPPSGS (non-natural residues, C-terminal amide, acylated Lys with fatty diacid; synthetic construct; SITE 2: note = 2-Aminoisobutyric Acid; SITE 10: note = 3-(4-Pyridyl)-L-alanine; SITE 13: note = alpha-methyl-leucine; SITE 17: note = Lysine is chemically modified through conjugation of the epsilon-amino group of the Lysine side chain with (2-[2-(2-Amino-ethoxy)-ethoxy]-acetyl)) [Example 224]	T

Next item in the queue.
# TODO verify Relative cAMP EC50 < 2 nM strictly for this binder: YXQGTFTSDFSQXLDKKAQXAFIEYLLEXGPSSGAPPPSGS (synthetic construct; SITE 2: note = 2-Aminoisobutyric Acid; SITE 13: note = alpha-methyl-leucine; SITE 17: note = Lysine is chemically modified through conjugation of the epsilon-amino group of the Lysine side chain with (gamma-Glu)2-CO-(CH2)16-CO2H; SITE 20: note = 2-Aminoisobutyric Acid; SITE 29:) [Example 784]
F
